Collected self-cleavage values appear next to each entry.
B1: CPEB3 Ribozyme (parent)
chain: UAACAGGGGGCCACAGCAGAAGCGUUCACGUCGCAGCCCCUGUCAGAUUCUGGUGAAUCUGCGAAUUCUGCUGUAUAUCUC

variants of: B1; assay: self-cleavage, relative activity (ratio to wild type); higher = more cleavage; in vitro, sequencing
READOUT_KIND: self-cleavage

{"columns": ["SEQUENCE_CHAIN", "RECORDED_RESULT"],
 "data": [
  ["UAACAGGGGGCCUCAGCAGAAGCGUUCACGUCGCAGCCCCUGUCAGAUUCUGGUGAAUCUGCGCAUUCUGCUGUAUAUCUC", 0.27],
  ["UAACAGGGGGCCACAGCAGAAGCUUUCACGUCGCAGCCCCUGUCAGAUUCUGGUGAAUCUGCGAAUUCUGCUGUAUUUCUC", 0.15],
  ["UAACAGGGGACCACAGCAGAAGCGUUCACGUCGCAGCCCCUGUCAGAUUCUGGUGAAUCUGCGAAUUCAGCUGUAUAUCUC", 0.11],
  ["UAACAGGGGGCCACAGCAGAAGCGUUCUCGUCGCAGCCCCUGUCAGAUUCUGGAGAAUCUGCGAAUUCUGCUGUAUAUCUC", 0.71],
  ["UAACAGGGGGCCACAGCAGAAGCGUUCACGUCGCAGACCCUGUCAGAUUCUGGUGAAUCUGCGAAUGCUGCUGUAUAUCUC", 0.17],
  ["UAACAGGGGGCCACAGCAGAAGCGUUCACGUCGCAGCCCCUGUCAGAUUCUGGUGACCCUGCGAAUUCUGCUGUAUAUCUC", 0.3],
  ["UUACAGGGGGCCACUGCAGAAGCGUUCACGUCGCAGCCCCUGUCAGAUUCUGGUGAAUCUGCGAAUUCUGCUGUAUAUCUC", 0.41],
  ["UAACAGGGGGCUACAGCAGAAGCGUUCACGUCGCAGCCCCGGUCAGAUUCUGGUGAAUCUGCGAAUUCUGCUGUAUAUCUC", 0.28],
  ["UAACAGGGGGCCACAGCAGAAGCGUUCACGUCGCAGCCCCUGUCAGAUUCCGGUAAAUCUGCGAAUUCUGCUGUAUAUCUC", 0.75],
  ["UAACAGGGGGCCUCAGCAGAACCGUUCACGUCGCAGCCCCUGUCAGAUUCUGGUGAAUCUGCGAAUUCUGCUGUAUAUCUC", 0.19],
  ["UGACAGGGGGCCACAGCAGAAGCGUUCACGUCGGAGCCCCUGUCAGAUUCUGGUGAAUCUGCGAAUUCUGCUGUAUAUCUC", 0.1],
  ["UAACCGGGGGCCACAGCAGAAGCGUUCACGUCGCAGCCCCUGUCGGAUUCUGGUGAAUCUGCGAAUUCUGCUGUAUAUCUC", 0.7],
  ["UAGCAGGGGGCCCCAGCAGAAGCGUUCACGUCGCAGCCCCUGUCAGAUUCUGGUGAAUCUGCGAAUUCUGCUGUAUAUCUC", 1.02],
  ["UAACAGGGGGCCACAGCAGAAGCGUUCACGUCGCAGCCCCUGUCAGAUUCCAGUGAAUCUGCGAAUUCUGCUGUAUAUCUC", 1.15],
  ["UAACAGGGGGCCACAGCAGAAGCGUUCACGUCGCAGCCCCAGUCAGAUUCUGGUGAAUCUGAGAAUUCUGCUGUAUAUCUC", 0.34],
  ["UAACAGGGGGCCACAGCGGAAGCGUUCACGUCGCAGCCCCUGUCAGAUUCGGGUGAAUCUGCGAAUUCUGCUGUAUAUCUC", 0.77],
  ["UAACAGGGGGCCACAGCAGAAGCGUUCACGUCGCAGCCCCUGUCAGAUUCUUGUGAAUCUGCGAAUUCUGCUGCAUAUCUC", 1.28],
  ["UAACAGGGGGCCACAGCAGAAGCGUUCACGACGCAGCCCCUGUCAGAUUCUGGUGAAUCUGCGAAUUCUGCUGUAUAUCUC", 0.56],
  ["UAACAGGGGGCCACAGCAGAAGCGUUCACGUCGCAGCCCCUGUCAGAUUCUGGUGAAUCUUCGAAUUCUGCUGUAUAUCUC", 0.6],
  ["UAACAGGGGGCCACAGUAGAAGCGUUCUCGUCGCAGCCCCUGUCAGAUUCUGGUGAAUCUGCGAAUUCUGCUGUAUAUCUC", 0.41],
  ["UAAUAGGGGGCCACAGCAGAAGCGUUCACGUCGCAGCCCCUGUCAGAUUCUGGUUAAUCUGCGAAUUCUGCUGUAUAUCUC", 1.28],
  ["UAACAGGGGGCCACAGCAGAAGCGUUCACGUCGCAGCCCCUGUCAGAUUCUGGUGAAUCUGCGAAUUCCGCUGGAUAUCUC", 0.88]
]}
